Assay: Human bioavailability study: 24 h urinary excretion
Assay type: in vivo
Settings: humans, after 75 g baked snack; per mg intake of corresponding compound
measured.endpoint: 24 h urinary excretion, Snack (nmol/mg intake)

molecule	24 h urinary excretion, Snack [nmol/mg intake]
O=c1cc(-c2ccc(O)cc2)oc2cc(O[C@@H]3O[C@H](CO)[C@@H](O)[C@H](O)[C@H]3O)cc(O)c12 [A-7-Glc, apigenin-7-O-glucoside]	0.15

(P) O=c1c(O)c(-c2ccc(O)c(O)c2)oc2cc(O)cc(O)c12
(Q) COc1cc(-c2oc3cc(O)cc(O)c3c(=O)c2O[C@@H]2O[C@H](C(=O)O)[C@@H](O)[C@H](O)[C@H]2O)ccc1O [IR-3-GlcA, isorhamnetin-3-glucuronide]
stdin: When the recorded 24 h urinary excretion, Snack values are compared, which is smaller: that of P or that of Q ? Could you answer with the label of the item you picked?
stdout: P
(P: 0.34 nmol/mg intake, Q: 1.60 nmol/mg intake)

(A) O=C(O)[C@H]1O[C@@H](Oc2cc(O)c3c(=O)cc(-c4ccc(O)cc4)oc3c2)[C@H](O)[C@@H](O)[C@@H]1O
(B) O=c1c(OS(=O)(=O)O)c(-c2ccc(O)c(O)c2)oc2cc(O)cc(O)c12 [Quercetin-3-sulfate]
(C) O=C(O)[C@H]1O[C@@H](Oc2c(-c3ccc(O)c(O)c3)oc3cc(O)cc(O)c3c2=O)[C@H](O)[C@@H](O)[C@@H]1O [Quercetin-3-GlcA, quercetin-3-glucuronide]
stdin: Ascending sort, 24 h urinary excretion, Snack. Rank them, then answer with their labels in that order.
stdout: B, C, A
(B: 2.58 nmol/mg intake, C: 4.17 nmol/mg intake, A: 6.32 nmol/mg intake)
